- Assay notes: log P by HPLC on reversed-phase column (EEC Directive 79/831 Annex V.A8)
- Type: physicochemical
- Assay setup: reversed-phase C18 HPLC column; pH 7.8, aqueous ammonium hydrogencarbonate/acetonitrile; 55° C.; read-out: log P (neutral)
Endpoint name: chromatographic logP

[[record]]
item_smiles = "CCS(=O)(=O)c1cc2ccc(Cl)cc2nc1-c1nc2cc(C(F)(F)F)ncc2n1C"
number = 2.63

[[record]]
item_smiles = "COC(=O)c1nc2ncc(Cl)cc2cc1Cl"
number = 1.93

[[record]]
item_smiles = "CCS(=O)(=O)c1cc2ccccc2nc1-c1nc2cc(C(F)(F)F)cnc2o1"
number = 3.27

[[record]]
item_smiles = "COC(=O)c1nc2ccc(Cl)nc2cc1Cl"
number = 2.46

[[record]]
item_smiles = "Cn1c(-c2nc3ncc(Cl)cc3cc2Cl)nc2cc(C(F)(F)F)ncc21"
number = 2.44

